System: SNK-6 (IL-2 2.5 ng/mL)
Test: drug sensitivity score (DSS) (DSS units); higher = more sensitive; extreme values may be limits of the assay
Settings: 72 h
Consider the following compounds; for each one, report its drug sensitivity score.

See these solved cases before continuing.
Return drug sensitivity score (reported value) for this compound: CN[C@@H](C)C(=O)N[C@H]1CN(C(=O)CC(C)C)CC[C@H]2CC[C@@H](C(=O)NC(c3ccccc3)c3ccccc3)N2C1=O [AT-406] (max concentration tested 10000 nM)
0.19

Return drug sensitivity score (reported value) for this compound: C=C(c1ccc(C(=O)O)cc1)c1cc2c(cc1C)C(C)(C)CCC2(C)C [Bexarotene] (max concentration tested 10000 nM)
1.61

Return drug sensitivity score (reported value) for this compound: C[C@@H](C(=O)O)c1ccc(-c2ccccc2)c(F)c1 [Tarenflurbil] (max concentration tested 10000 nM)
0.04

Now for the compound whose drug sensitivity score we want.
Return drug sensitivity score (reported value) for this compound: O=C(O)CCCc1ccc(N(CCCl)CCCl)cc1 [Chlorambucil] (max concentration tested 10000 nM)
6.91

Reference source for all entries: the supplement of paper PMC5908809
